Would you mind telling me the reported IC50, TF-1 cell proliferation assay of each entry?
# Assayed Target: human IL-13 (human) (UniProt P35225)
# Sequence (P35225 other isoform, or with tags, fused parts or gaps): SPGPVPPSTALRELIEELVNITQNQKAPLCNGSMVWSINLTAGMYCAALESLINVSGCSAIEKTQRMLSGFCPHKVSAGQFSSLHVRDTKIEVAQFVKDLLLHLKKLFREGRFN
# Protocol Text: cell-based or functional assay
Hey, just the number and the unit after it is fine.

// IC50, TF-1 cell proliferation assay lookup, binder = BAK1166G2 scFv (scFv, part only; not given: Linker, part only) scFv, part: QVQLVQSGAEVKKPGASVKVSCKASGYTFANTGISWVRQAPGQGLEWMGWISANNGDTNYGQEFQGRVTMTTDTSTSTAYMELRSLRSDDTAVYYCARDSSSSWARWFFDLWGRGTLVTVSSSYVLTQPPSVSVAPGKTARITCGGNIIGSKLVHWYQQKPGQAPVLVIYDDGDRPSGIPERFSGSNSGNTATLTISRVEAGDEADYYCQVWDTGSDPVVFGGGTKLTVL , result: 0.2 nM

# IC50, TF-1 cell proliferation assay of BAK1185E1 scFv (scFv, part only; not given: Linker, part only) scFv, part: QVQLVQSGAEVKKPGASVKVSCKASGYTFTNYGLSWVRQAPGQGLEWMGWINDATGDTQYGQEFQGRVTMTTDTSTSTAYMELRSLRSDDTAVYYCARDSSSSWARWFFDLWGRGTLVTVSSSYVLTQPPSVSVAPGKTARITCGGNIIGSKLVHWYQQKPGQAPVLVIYDDGDRPSGIPERFSGSNSGNTATLTISRVEAGDEADYYCQVWDTGSDPVVFGGGTKLTVL = 0.2 nM

binder BAK1111D10 scFv (scFv, V domains shown, part only, scFv linker not given) VH: QVQLVQSGAEVKKPGASVKVSCKASGYTFTNYGLSWVRQAPGQGLEWMGWIATPDGQTSYGQEFQGRVTMTTDTSTSTAYMELRSLRSDDTAVYYCARDSNSSWARWFFDLWGRGTLVTVSS VL: SYVLTQPPSVSVAPGKTARITCGGNIIGSKLVHWYQQKPGQAPVLVIYDDGDRPSGIPERFSGSNSGNTATLTISRVEAGDEADYYCQVWDTGSDPVVFGGGTKLTVL , IC50, TF-1 cell proliferation assay observed: 0.2 nM

Briefly, IC50, TF-1 cell proliferation assay measured for BAK1167F2 scFv (scFv, part only; not given: Linker, part only) scFv, part: QVQLVQSGAEVKKPGASVKVSCKASGYTFEQTGVSWVRQAPGQGLEWMGWISANNGDTNYGQEFQGRVTMTTDTSTSTAYMELRSLRSDDTAVYYCARDSSSSWARWFFDLWGRGTLVTVSSSYVLTQPPSVSVAPGKTARITCGGNIIGSKLVHWYQQKPGQAPVLVIYDDGDRPSGIPERFSGSNSGNTATLTISRVEAGDEADYYCQVWDTGSDPVVFGGGTKLTVL : 0.2 nM

IC50, TF-1 cell proliferation assay recorded for this binder, BAK1185F8 scFv (scFv, V domains shown, part only, scFv linker not given) VH: QVQLVQSGAEVKKPGASVKVSCKASGYTFTDYGLSWVRQAPGQGLEWMGWIRNIDGYTIYGQEFQGRVTMTTDTSTSTAYMELRSLRSDDTAVYYCARDSSSSWARWFFDLWGRGTLVTVSS VL: SYVLTQPPSVSVAPGKTARITCGGNIIGSKLVHWYQQKPGQAPVLVIYDDGDRPSGIPERFSGSNSGNTATLTISRVEAGDEADYYCQVWDTGSDPVVFGGGTKLTVL , is 0.2 nM

For BAK1187B4 scFv (scFv, part only; not given: Linker, part only) scFv, part: QVQLVQSGAEVKKPGASVKVSCKASGYTFTNYGLSWVRQAPGQGLEWMGWIDDDSGTTIYGQEFQGRVTMTTDTSTSTAYMELRSLRSDDTAVYYCARDSSSSWARWFFDLWGRGTLVTVSSSYVLTQPPSVSVAPGKTARITCGGNIIGSKLVHWYQQKPGQAPVLVIYDDGDRPSGIPERFSGSNSGNTATLTISRVEAGDEADYYCQVWDTGSDPVVFGGGTKLTVL the binder record lists IC50, TF-1 cell proliferation assay as 0.1 nM
